# Tested on: upland rice (Oryza sp., var. Tebonnet, RICE)
# assay-procedure: Post-emerge test, crop safety
# Type: in vivo
# test-settings: post-emerge, 63 g ai/ha, 14 days after application, rating scale 0-100
// boundary case: phytotoxicity rating RICE equal to 30 maps to condition not met; strictly smaller maps to condition met

Please determine if COc1c(Cl)cc(F)c(-n2c(=O)cc(C(F)(F)F)n(C)c2=O)c1NC(=O)c1ccc(C#N)cc1 is below 30 in terms of phytotoxicity rating RICE. condition not met

Please determine if COc1c(Cl)cc(F)c(-n2c(=O)cc(C(F)(F)F)n(C)c2=O)c1NC(=O)C=Cc1ccco1 is below 30 in terms of phytotoxicity rating RICE. condition met

Please determine if Cn1c(C(F)(F)F)cc(=O)n(-c2c(F)cc(Cl)c(OCC#N)c2N(C(=O)c2ccc(F)cc2F)C(=O)c2ccc(F)cc2F)c1=O is below 30 in terms of phytotoxicity rating RICE. condition met

Please determine if COc1c(Cl)cc(F)c(-n2c(=O)cc(C(F)(F)F)n(C)c2=O)c1NC(=O)c1ccc(C(F)(F)F)cc1 is below 30 in terms of phytotoxicity rating RICE. condition met

Please determine if COc1c(Cl)cc(F)c(-n2c(=O)cc(C(F)(F)F)n(C)c2=O)c1NC(=O)COc1ccccc1 is below 30 in terms of phytotoxicity rating RICE. condition not met

Please determine if COc1c(Cl)cc(F)c(-n2c(=O)cc(C(F)(F)F)n(C)c2=O)c1NC(=O)c1ccc(Cl)cc1 is below 30 in terms of phytotoxicity rating RICE. condition not met

Please determine if COc1c(Cl)cc(F)c(-n2c(=O)cc(C(F)(F)F)n(C)c2=O)c1N(C(=O)c1ccc([N+](=O)[O-])cc1)C(=O)c1ccc([N+](=O)[O-])cc1 is below 30 in terms of phytotoxicity rating RICE. condition met

Please determine if COc1c(Cl)cc(F)c(-n2c(=O)cc(C(F)(F)F)n(C)c2=O)c1NC(=O)COC(C)=O is below 30 in terms of phytotoxicity rating RICE. condition met

Please determine if COc1c(Cl)cc(F)c(-n2c(=O)cc(C(F)(F)F)n(C)c2=O)c1NC(=O)C=Cc1ccc(Cl)cc1 is below 30 in terms of phytotoxicity rating RICE. condition met

Please determine if COc1c(Cl)cc(F)c(-n2c(=O)cc(C(F)(F)F)n(C)c2=O)c1N(C(=O)COc1ccccc1)C(=O)COc1ccccc1 is below 30 in terms of phytotoxicity rating RICE. condition not met

Please determine if COc1c(Cl)cc(F)c(-n2c(=O)cc(C(F)(F)F)n(C)c2=O)c1NC(=O)c1ccc(CCl)cc1 is below 30 in terms of phytotoxicity rating RICE. condition met

Please determine if COc1c(Cl)cc(F)c(-n2c(=O)cc(C(F)(F)F)n(C)c2=O)c1N(C(=O)C=Cc1ccccc1Cl)C(=O)C=Cc1ccccc1Cl is below 30 in terms of phytotoxicity rating RICE. condition not met

Please determine if COc1c(Cl)cc(F)c(-n2c(=O)cc(C(F)(F)F)n(C)c2=O)c1NC(=O)c1ccc(-c2ccccc2)cc1 is below 30 in terms of phytotoxicity rating RICE. condition met

---

Give measured phytotoxicity rating CORN for each item. Keep answers brief.
# Tested on: field corn (Zea mays L., var. Dekalb 535, CORN)
# assay-procedure: Pre-emerge test, crop safety
# Type: in vivo
# test-settings: pre-emerge, 63 g ai/ha, 14 days after application, rating scale 0-100
Would you mind answering with just the numeric figure?

Item under review: CCOC(=O)C(Cl)Cc1c(OC)c(Cl)cc(F)c1-c1nn(C)c(C(F)(F)F)c1Cl (stereo not shown) [14-56] . Reported phytotoxicity rating CORN? 0

Item under review: Cn1c(C(F)(F)F)cc(=O)n(-c2ccc(Cl)cc2/C=C/c2ccc3ccccc3c2)c1=O [14-59] . Reported phytotoxicity rating CORN? 0

Item under review: COc1c(Cl)cc(F)c(-n2c(=O)cc(C(F)(F)F)n(C)c2=O)c1NNC(=O)c1ccc2ccccc2c1 [15-5] . Reported phytotoxicity rating CORN? 80

Item under review: COc1c(Cl)cc(F)c(-n2c(=O)cc(C(F)(F)F)n(C)c2=O)c1NN=C(C)C [15-12] . Reported phytotoxicity rating CORN? 100

Item under review: COc1c(Cl)cc(F)c(-n2c(=O)cc(C(F)(F)F)n(C)c2=O)c1NNC(=O)Oc1ccccc1 [15-7] . Reported phytotoxicity rating CORN? 85

Item under review: COc1c(Cl)cc(F)c(-n2c(=O)cc(C(F)(F)F)n(C)c2=O)c1NNC(=O)c1ccc(F)cc1F [15-4] . Reported phytotoxicity rating CORN? 90

Item under review: COc1c(Cl)cc(F)c(-n2c(=O)cc(C(F)(F)F)n(C)c2=O)c1NN=C(C(F)(F)F)C(F)(F)F [15-21] . Reported phytotoxicity rating CORN? 95

Item under review: COc1c(Cl)cc(F)c(-n2c(=O)cc(C(F)(F)F)n(C)c2=O)c1Sc1ccc2ccccc2c1 [17-4] . Reported phytotoxicity rating CORN? 0

Item under review: CCOC(=O)CC(C)=NNc1c(OC)c(Cl)cc(F)c1-n1c(=O)cc(C(F)(F)F)n(C)c1=O [15-16] . Reported phytotoxicity rating CORN? 65

Item under review: COc1cc(Cl)cc(Cl)c1-n1c(=O)cc(C(F)(F)F)n(C)c1=O [16-2] . Reported phytotoxicity rating CORN? 0

Item under review: CCOC(=O)C(Cl)(CC(=O)OC)Cc1c(OC)c(Cl)cc(F)c1-n1c(=O)cc(C(F)(F)F)n(C)c1=O (stereo not shown) [14-50] . Reported phytotoxicity rating CORN? 10

Item under review: COc1c(Cl)cc(F)c(-n2c(=O)cc(C(F)(F)F)n(C)c2=O)c1SC [Compound 17-1] . Reported phytotoxicity rating CORN? 0

Item under review: COc1c(Cl)cc(F)c(-n2c(=O)cc(C(F)(F)F)n(C)c2=O)c1NNC(=O)C1CC1 [Compound 15-2] . Reported phytotoxicity rating CORN? 80

Item under review: CCOC(=O)C(Cl)Cc1c(OCC)c(Cl)cc(F)c1-n1c(=O)cc(C(F)(F)F)n(C)c1=O (stereo not shown) [14-64] . Reported phytotoxicity rating CORN? 0

Item under review: CCOC(=O)C(Cl)Cc1c(OC)c(Cl)cc(F)c1-n1nc(C(F)(F)F)n(C)c1=O (stereo not shown) [14-61] . Reported phytotoxicity rating CORN? 0

Item under review: COc1c(Cl)cc(F)c(-n2c(=O)cc(C(F)(F)F)n(C)c2=O)c1CC(C)(Cl)C(=O)OCCSC (stereo not shown) [14-48] . Reported phytotoxicity rating CORN? 0

---

Give measured phytotoxicity rating RICE for each item. Keep answers brief.
# Tested on: upland rice (Oryza sp., var. Tebonnet, RICE)
# assay-procedure: Pre-emerge test, crop safety
# Assay type: in vivo
# test-settings: pre-emerge, 63 g ai/ha, 14 days after application, rating scale 0-100
Would you mind answering with just the numeric figure?

Item under review: COc1c(Cl)cc(F)c(-n2c(=O)cc(C(F)(F)F)n(C)c2=O)c1CC(C)(Cl)C(=O)OCCSC (stereo not shown) . Reported phytotoxicity rating RICE? 30

Item under review: CCOC(=O)C(Cl)Cc1c(OCC)c(Cl)cc(F)c1-n1c(=O)cc(C(F)(F)F)n(C)c1=O (stereo not shown) [14-64] . Reported phytotoxicity rating RICE? 0

Item under review: CCOc1c(Cl)cc(F)c(-n2c(=O)cc(C(F)(F)F)n(C)c2=O)c1Cl . Reported phytotoxicity rating RICE? 0

Item under review: CCOC(=O)C(Cl)Cc1cc(Cl)cc(F)c1-n1c(=O)cc(C(F)(F)F)n(C)c1=O (stereo not shown) . Reported phytotoxicity rating RICE? 0

Item under review: CCOC(=O)CC(C)=NNc1c(OC)c(Cl)cc(F)c1-n1c(=O)cc(C(F)(F)F)n(C)c1=O . Reported phytotoxicity rating RICE? 90

Item under review: Cn1c(C(F)(F)F)cc(=O)n(-c2ccc(Cl)cc2/C=C/c2ccc3ccccc3c2)c1=O . Reported phytotoxicity rating RICE? 0

Item under review: CCOC(=O)C(Cl)Cc1c(C)c(Cl)cc(F)c1-n1c(=O)cc(C(F)(F)F)n(C)c1=O (stereo not shown) . Reported phytotoxicity rating RICE? 0

Item under review: COc1c(Cl)cc(F)c(-n2c(=O)cc(C(F)(F)F)n(C)c2=O)c1NNC(=O)c1ccccc1 . Reported phytotoxicity rating RICE? 95

Item under review: Cn1c(C(F)(F)F)cc(=O)n(-c2ccc(Cl)cc2C(=O)c2ccccc2)c1=O . Reported phytotoxicity rating RICE? 0

Item under review: COc1cc(Cl)cc(Cl)c1-n1c(=O)cc(C(F)(F)F)n(C)c1=O . Reported phytotoxicity rating RICE? 0

Item under review: CCCOC(=O)C(Cl)Cc1c(OCC)c(Cl)cc(F)c1-n1c(=O)cc(C(F)(F)F)n(C)c1=O (stereo not shown) [14-66] . Reported phytotoxicity rating RICE? 0

Item under review: COc1c(Cl)cc(F)c(-n2c(=O)cc(C(F)(F)F)n(C)c2=O)c1SC(C)C . Reported phytotoxicity rating RICE? 0

Item under review: COc1c(Cl)cc(F)c(-n2c(=O)cc(C(F)(F)F)n(C)c2=O)c1NNC(=O)Oc1ccccc1 . Reported phytotoxicity rating RICE? 90

Item under review: C=CC=NNc1c(OC)c(Cl)cc(F)c1-n1c(=O)cc(C(F)(F)F)n(C)c1=O . Reported phytotoxicity rating RICE? 80

Item under review: COc1c(Cl)cc(F)c(-n2c(=O)cc(C(F)(F)F)n(C)c2=O)c1Sc1ccc2ccccc2c1 . Reported phytotoxicity rating RICE? 0

Item under review: CCOC(=O)C(Cl)Cc1c(OCC)c(Cl)cc(F)c1-n1c(=O)cc(C(F)(F)F)n(C)c1=O (stereo not shown) [14-63] . Reported phytotoxicity rating RICE? 0

Item under review: COc1c(Cl)cc(F)c(-n2c(=O)cc(C(F)(F)F)n(C)c2=O)c1NN=CC(C)c1ccccc1 (stereo not shown) . Reported phytotoxicity rating RICE? 100

Item under review: COc1c(Cl)cc(F)c(-n2c(=O)cc(C(F)(F)F)n(C)c2=O)c1NN=CCc1ccccc1 . Reported phytotoxicity rating RICE? 95

Item under review: COc1c(Cl)cc(F)c(-n2c(=O)cc(C(F)(F)F)n(C)c2=O)c1NN=Cc1ccc(F)cc1F . Reported phytotoxicity rating RICE? 70

Item under review: COc1c(Cl)cc(F)c(-n2c(=O)cc(C(F)(F)F)n(C)c2=O)c1NNC(=O)Nc1ccc(F)cc1F . Reported phytotoxicity rating RICE? 15

Item under review: CCCOC(=O)C(Cl)Cc1c(OCC)c(Cl)cc(F)c1-n1c(=O)cc(C(F)(F)F)n(C)c1=O (stereo not shown) [14-65] . Reported phytotoxicity rating RICE? 0

Item under review: COc1c(Cl)cc(F)c(-n2c(=O)cc(C(F)(F)F)n(C)c2=O)c1NNC(=O)C1CC1 . Reported phytotoxicity rating RICE? 99

Item under review: CCOC(=O)C(Cl)(CC(=O)OC)Cc1c(OC)c(Cl)cc(F)c1-n1c(=O)cc(C(F)(F)F)n(C)c1=O (stereo not shown) . Reported phytotoxicity rating RICE? 0

Item under review: CCOC(=O)NNc1c(OC)c(Cl)cc(F)c1-n1c(=O)cc(C(F)(F)F)n(C)c1=O . Reported phytotoxicity rating RICE? 98

Item under review: COc1c(Cl)cc(F)c(-n2c(=O)cc(C(F)(F)F)n(C)c2=O)c1SC . Reported phytotoxicity rating RICE? 10

Item under review: COc1c(Cl)cc(F)c(-n2c(=O)cc(C(F)(F)F)n(C)c2=O)c1NN=C1CCc2ccccc2C1 . Reported phytotoxicity rating RICE? 90

Item under review: CCOC(=O)C(Cl)(C#N)Cc1c(OC)c(Cl)cc(F)c1-n1c(=O)cc(C(F)(F)F)n(C)c1=O (stereo not shown) . Reported phytotoxicity rating RICE? 0

Item under review: CCOC(=O)C(Cl)Cc1cc(Cl)cc(F)c1-n1nc(C)n(C(F)F)c1=O (stereo not shown) . Reported phytotoxicity rating RICE? 0

All figures here come from patent US6355799B1.
